# test: yeast display, Sf9 membrane polyspecificity reagent, FACS + sequencing; frameworks hold sequencing errors

- seq: "QVQLVESGGGLVQAVGRLRLSCAASGSTFAIYAMGWYRQAPGKERELVAAITVSGGSTYYADSVKGRFTISRDNAKNTVYLQMNSLKPEDTAVYYCNADWSGWQGWYNYWGQGTQVTVSS"
  polyreactivity (PSR sort gate): "low polyreactivity"
- seq: "QVQLVESGGGLVQAGGSLRLSCAASGRIFWNYAMGWYREAPGKERELVASINWSGGSTYSADSVKGRFTISRDNAKNTVYLQMNSLKPEDTAVYYCNQDGRVYLDHDYWGQGTQVTVSS"
  polyreactivity (PSR sort gate): "low polyreactivity"
